tested on: transglutaminase (TGase I); assay: Transglutaminase (Tgase) ELISA assay in cultured keratinocytes with retinol and boosters; type: cell-based, human; settings: IC20 (80% of control), compound tested individually in the presence of 10^-7 M retinol
Threshold-based label: IC20 under 30 µM gives Y, IC20 not under 30 µM gives N.

{"columns": ["Compound", "Target Entity", "Class Assignment"],
 "data": [
  ["CC(C)(O)CCCC1=CCC(C=O)CC1 (stereo not drawn) [Lyral]", "transglutaminase (TGase I)", "N"],
  ["O=c1c(O)c(-c2ccc(O)c(O)c2)oc2cc(O)cc(O)c12 [Quercetin]", "transglutaminase (TGase I)", "N"],
  ["Clc1ccc(COC(Cn2ccnc2)c2ccc(Cl)cc2Cl)c(Cl)c1 (stereo not drawn) [Miconazole, reference compound]", "transglutaminase (TGase I)", "Y"],
  ["CC(/C=C/C=C(\\C)C(=O)O)=C\\C=C\\C=C(C)\\C=C\\C=C(/C)C(=O)O [Crocetin]", "transglutaminase (TGase I)", "Y"],
  ["CCCCC/C=C\\C/C=C\\CCCCCCCC(=O)NCCO [Linoleoyl Monoethanolamide]", "transglutaminase (TGase I)", "Y"]
]}

Incoming: Take the compound CC/C=C\C/C=C\C/C=C\CCCCCCCC(=O)O [Linolenic Acid] and say whether its IC20 is less than 30 µM.
Outgoing: N
